tested target: Rn_DYRK1A (Rattus norvegicus)
protocol text: radiometric γ33P-ATP kinase assay (Eurofins)
Type: biochemical
condition context: 15 µM ATP; dose-response, points in duplicate
parameter: IC50 (µM)

{"columns": ["compound", "reported measurement"],
 "data": [
  ["Cc1ccc(-n2cc(COc3cccc4cnc(Nc5cc(Cl)cc(-c6cccc(C(=O)O)c6)c5)nc34)nn2)c([N+](=O)[O-])c1 [Compound 13b]", 14.8]
]}

====

This listing pairs compounds with measured remaining activity at 1 µM.
tested target: Hs_CDK9/CyclinT (Homo sapiens)
Sequence (P50750 whole entry): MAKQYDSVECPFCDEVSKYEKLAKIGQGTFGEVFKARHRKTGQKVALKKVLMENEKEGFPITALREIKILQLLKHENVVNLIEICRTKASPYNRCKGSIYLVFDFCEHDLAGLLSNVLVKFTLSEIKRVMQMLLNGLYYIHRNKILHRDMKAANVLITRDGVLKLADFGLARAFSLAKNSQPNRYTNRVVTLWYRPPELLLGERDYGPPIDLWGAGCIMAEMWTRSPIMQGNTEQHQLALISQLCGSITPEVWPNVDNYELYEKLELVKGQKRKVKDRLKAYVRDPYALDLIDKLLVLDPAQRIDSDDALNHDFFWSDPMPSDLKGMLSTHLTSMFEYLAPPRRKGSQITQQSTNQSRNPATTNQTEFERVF
Sequence (O60563 whole entry partner): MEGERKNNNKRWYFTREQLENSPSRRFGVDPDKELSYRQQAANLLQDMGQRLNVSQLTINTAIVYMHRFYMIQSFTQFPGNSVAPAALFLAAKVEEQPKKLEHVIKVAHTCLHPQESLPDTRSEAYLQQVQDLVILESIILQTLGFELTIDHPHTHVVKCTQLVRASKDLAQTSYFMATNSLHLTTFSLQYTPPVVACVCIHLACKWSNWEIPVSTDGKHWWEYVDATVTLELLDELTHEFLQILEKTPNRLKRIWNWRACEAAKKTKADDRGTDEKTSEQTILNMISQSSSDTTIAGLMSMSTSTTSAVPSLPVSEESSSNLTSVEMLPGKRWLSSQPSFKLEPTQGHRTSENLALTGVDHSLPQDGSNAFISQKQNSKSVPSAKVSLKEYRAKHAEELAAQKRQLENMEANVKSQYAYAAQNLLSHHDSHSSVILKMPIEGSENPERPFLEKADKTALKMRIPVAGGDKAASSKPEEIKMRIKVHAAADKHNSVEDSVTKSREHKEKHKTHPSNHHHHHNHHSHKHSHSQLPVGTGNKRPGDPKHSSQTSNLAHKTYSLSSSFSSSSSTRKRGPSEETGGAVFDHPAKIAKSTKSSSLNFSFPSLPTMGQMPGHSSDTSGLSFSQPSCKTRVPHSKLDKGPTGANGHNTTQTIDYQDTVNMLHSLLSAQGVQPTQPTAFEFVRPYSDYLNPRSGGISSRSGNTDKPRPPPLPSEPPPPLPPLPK
protocol text: primary screening, short panel of mammalian kinases
Type: biochemical
condition context: compound 1 μM; ATP 10 µM; means, n = 2; read-out: Residual kinase activity Hs_CDK9/CyclinT

{"columns": ["compound", "tested target", "remaining activity at 1 µM (%)"],
 "data": [
  ["COC(=O)c1ccc(-c2cc(Cl)cc(Nc3ncc4cccc(OCc5cn(-c6ccc(C)cc6[N+](=O)[O-])nn5)c4n3)c2)cc1", "Hs_CDK9/CyclinT (Homo sapiens)", 96],
  ["Cc1ccc(-n2cc(COc3cccc4cnc(Nc5cccc(-c6cccc(C(=O)O)c6)c5)nc34)nn2)c([N+](=O)[O-])c1 [Compound 13a]", "Hs_CDK9/CyclinT (Homo sapiens)", 83],
  ["COC(=O)c1cccc(-c2cc(Cl)cc(Nc3ncc4cccc(OCc5cn(-c6ccc(C)cc6[N+](=O)[O-])nn5)c4n3)c2)c1 [Compound 12b]", "Hs_CDK9/CyclinT (Homo sapiens)", 94]
]}

====

tested target: Hs_PIM1 (Homo sapiens)
Sequence (P11309 whole entry): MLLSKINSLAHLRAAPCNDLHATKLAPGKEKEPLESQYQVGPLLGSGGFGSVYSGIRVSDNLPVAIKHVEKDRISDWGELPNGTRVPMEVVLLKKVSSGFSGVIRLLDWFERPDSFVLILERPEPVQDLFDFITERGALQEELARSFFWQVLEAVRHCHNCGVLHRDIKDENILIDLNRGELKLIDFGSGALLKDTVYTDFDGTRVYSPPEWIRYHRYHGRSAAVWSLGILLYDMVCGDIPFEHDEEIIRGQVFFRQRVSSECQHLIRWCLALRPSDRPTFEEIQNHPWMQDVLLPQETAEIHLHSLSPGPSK
protocol text: primary screening, short panel of mammalian kinases
Type: biochemical
condition context: compound 10 μM; ATP 10 µM; means, n = 2; read-out: Residual kinase activity Hs_PIM1

{"columns": ["molecule", "result unit", "prefix operator", "remaining activity at 10 µM"],
 "data": [
  ["Cc1ccc(-n2cc(COc3cccc4cnc(Nc5cc(Cl)cc(-c6cccc(C(=O)O)c6)c5)nc34)nn2)c([N+](=O)[O-])c1 [Compound 13b]", "%", "≥", 100],
  ["COC(=O)c1ccc(-c2cc(Cl)cc(Nc3ncc4cccc(OCc5cn(-c6ccc(C)cc6[N+](=O)[O-])nn5)c4n3)c2)cc1", "%", "=", 96],
  ["Cc1ccc(-n2cc(COc3cccc4cnc(Nc5cccc(-c6ccc(C(=O)O)cc6)c5)nc34)nn2)c([N+](=O)[O-])c1 [Compound 10a]", "%", "≥", 100],
  ["COC(=O)c1cccc(-c2cc(Cl)cc(Nc3ncc4cccc(OCc5cn(-c6ccc(C)cc6[N+](=O)[O-])nn5)c4n3)c2)c1 [Compound 12b]", "%", "=", 98],
  ["COC(=O)c1ccc(-c2cccc(Nc3ncc4cccc(OCc5cn(-c6ccc(C)cc6[N+](=O)[O-])nn5)c4n3)c2)cc1", "%", "=", 90],
  ["Cc1ccc(-n2cc(COc3cccc4cnc(Nc5cc(Cl)cc(-c6ccc(C(=O)O)cc6)c5)nc34)nn2)c([N+](=O)[O-])c1 [Compound 10b]", "%", "≥", 100],
  ["Cc1ccc(-n2cc(COc3cccc4cnc(Nc5cccc(-c6cccc(C(=O)O)c6)c5)nc34)nn2)c([N+](=O)[O-])c1 [Compound 13a]", "%", "≥", 100]
]}

====

tested target: Hs_HASPIN (Homo sapiens, UniProt Q8TF76)
Sequence (Q8TF76 whole entry): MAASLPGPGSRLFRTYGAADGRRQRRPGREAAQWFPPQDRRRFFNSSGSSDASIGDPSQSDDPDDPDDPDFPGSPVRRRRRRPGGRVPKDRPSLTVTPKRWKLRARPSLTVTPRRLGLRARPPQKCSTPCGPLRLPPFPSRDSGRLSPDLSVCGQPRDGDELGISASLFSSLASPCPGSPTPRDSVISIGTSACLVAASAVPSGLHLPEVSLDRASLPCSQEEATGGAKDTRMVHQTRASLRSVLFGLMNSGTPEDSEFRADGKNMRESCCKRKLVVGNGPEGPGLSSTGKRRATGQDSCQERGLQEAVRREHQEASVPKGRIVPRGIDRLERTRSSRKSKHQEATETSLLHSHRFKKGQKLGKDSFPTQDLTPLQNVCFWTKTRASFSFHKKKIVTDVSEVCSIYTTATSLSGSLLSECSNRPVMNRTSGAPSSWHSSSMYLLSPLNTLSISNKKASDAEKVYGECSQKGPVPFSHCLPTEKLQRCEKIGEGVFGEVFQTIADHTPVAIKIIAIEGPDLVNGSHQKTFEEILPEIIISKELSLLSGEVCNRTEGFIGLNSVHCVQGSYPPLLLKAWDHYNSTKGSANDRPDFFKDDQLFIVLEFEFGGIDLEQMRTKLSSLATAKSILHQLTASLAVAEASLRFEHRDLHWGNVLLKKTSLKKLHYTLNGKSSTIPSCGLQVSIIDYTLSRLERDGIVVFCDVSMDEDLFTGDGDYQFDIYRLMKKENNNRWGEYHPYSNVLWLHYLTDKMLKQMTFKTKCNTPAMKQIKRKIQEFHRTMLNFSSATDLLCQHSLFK
protocol text: primary screening, short panel of mammalian kinases
Format: biochemical
condition context: compound 10 μM; ATP 10 µM; means, n = 2; read-out: Residual kinase activity Hs_HASPIN
Checkbox rule: remaining activity at 10 µM lower than 70% = rule met; remaining activity at 10 µM not lower than 70% = rule not met.

{"columns": ["molecule", "group label"],
 "data": [
  ["Cc1ccc(-n2cc(COc3cccc4cnc(Nc5cccc(-c6ccc(C(=O)O)cc6)c5)nc34)nn2)c([N+](=O)[O-])c1 [Compound 10a]", "rule not met"],
  ["Cc1ccc(-n2cc(COc3cccc4cnc(Nc5cc(Cl)cc(-c6cccc(C(=O)O)c6)c5)nc34)nn2)c([N+](=O)[O-])c1 [Compound 13b]", "rule not met"],
  ["Cc1ccc(-n2cc(COc3cccc4cnc(Nc5cccc(-c6cccc(C(=O)O)c6)c5)nc34)nn2)c([N+](=O)[O-])c1 [Compound 13a]", "rule met"],
  ["COC(=O)c1cccc(-c2cc(Cl)cc(Nc3ncc4cccc(OCc5cn(-c6ccc(C)cc6[N+](=O)[O-])nn5)c4n3)c2)c1 [Compound 12b]", "rule met"],
  ["COC(=O)c1ccc(-c2cccc(Nc3ncc4cccc(OCc5cn(-c6ccc(C)cc6[N+](=O)[O-])nn5)c4n3)c2)cc1", "rule not met"],
  ["COC(=O)c1ccc(-c2cc(Cl)cc(Nc3ncc4cccc(OCc5cn(-c6ccc(C)cc6[N+](=O)[O-])nn5)c4n3)c2)cc1", "rule met"],
  ["Cc1ccc(-n2cc(COc3cccc4cnc(Nc5cc(Cl)cc(-c6ccc(C(=O)O)cc6)c5)nc34)nn2)c([N+](=O)[O-])c1 [Compound 10b]", "rule not met"]
]}

====

tested target: Mm_CLK1 (Mus musculus, UniProt P22518)
Sequence (P22518 whole entry): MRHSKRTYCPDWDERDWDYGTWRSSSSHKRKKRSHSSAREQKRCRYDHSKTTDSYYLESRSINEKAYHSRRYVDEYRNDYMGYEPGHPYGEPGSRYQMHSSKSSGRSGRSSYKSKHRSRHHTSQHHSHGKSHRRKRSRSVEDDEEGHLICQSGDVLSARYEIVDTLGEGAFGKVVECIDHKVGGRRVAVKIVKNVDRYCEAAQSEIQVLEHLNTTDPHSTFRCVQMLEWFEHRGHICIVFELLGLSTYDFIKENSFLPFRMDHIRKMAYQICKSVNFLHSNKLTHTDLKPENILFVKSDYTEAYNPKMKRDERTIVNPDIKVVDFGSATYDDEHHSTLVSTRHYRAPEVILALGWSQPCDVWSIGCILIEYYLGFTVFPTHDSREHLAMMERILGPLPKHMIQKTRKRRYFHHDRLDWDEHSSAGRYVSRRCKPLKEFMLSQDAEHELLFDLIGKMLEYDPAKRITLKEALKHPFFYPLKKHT
protocol text: primary screening, short panel of mammalian kinases
Type: biochemical
condition context: compound 10 μM; ATP 10 µM; means, n = 2; read-out: Residual kinase activity Mm_CLK1
From the text: Our molecules have been submitted first to a primary screening against a panel of eight disease-related kinases: five members of the CMGC (for CDK, MAPK, GSK3, and CLK) group (CDK5/p25, CDK9/CyclinT, GSK3β, CLK1 and DYRK1A), one CAMK (calmodulin/calcium regulated kinase PIM1), one CK1 (the casein kinase CK1ε), and haspin as a […] kinase. Figure 4 Primary evaluation of the inhibition of the new quinazolines against a short panel of mammalian kinases. […]
Checkbox rule: remaining activity at 10 µM lower than 10% = MET; remaining activity at 10 µM not lower than 10% = NOT MET.

{"columns": ["compound", "group label"],
 "data": [
  ["Cc1ccc(-n2cc(COc3cccc4cnc(Nc5cc(Cl)cc(-c6ccc(C(=O)O)cc6)c5)nc34)nn2)c([N+](=O)[O-])c1 [Compound 10b]", "MET"],
  ["Cc1ccc(-n2cc(COc3cccc4cnc(Nc5cc(Cl)cc(-c6cccc(C(=O)O)c6)c5)nc34)nn2)c([N+](=O)[O-])c1 [Compound 13b]", "NOT MET"],
  ["Cc1ccc(-n2cc(COc3cccc4cnc(Nc5cccc(-c6ccc(C(=O)O)cc6)c5)nc34)nn2)c([N+](=O)[O-])c1 [Compound 10a]", "MET"],
  ["COC(=O)c1cccc(-c2cc(Cl)cc(Nc3ncc4cccc(OCc5cn(-c6ccc(C)cc6[N+](=O)[O-])nn5)c4n3)c2)c1 [Compound 12b]", "NOT MET"],
  ["COC(=O)c1ccc(-c2cc(Cl)cc(Nc3ncc4cccc(OCc5cn(-c6ccc(C)cc6[N+](=O)[O-])nn5)c4n3)c2)cc1", "NOT MET"],
  ["Cc1ccc(-n2cc(COc3cccc4cnc(Nc5cccc(-c6cccc(C(=O)O)c6)c5)nc34)nn2)c([N+](=O)[O-])c1 [Compound 13a]", "MET"],
  ["COC(=O)c1ccc(-c2cccc(Nc3ncc4cccc(OCc5cn(-c6ccc(C)cc6[N+](=O)[O-])nn5)c4n3)c2)cc1", "NOT MET"]
]}

====

Each entry below carries its measured pIC50, system: Mm_CLK1 (Mus musculus).
pIC50: −log10 of the molar value.

{"columns": ["compound", "pIC50"],
 "data": [
  ["Cc1ccc(-n2cc(COc3cccc4cnc(Nc5cc(Cl)cc(-c6ccc(C(=O)O)cc6)c5)nc34)nn2)c([N+](=O)[O-])c1 [Compound 10b]", 6.67],
  ["Cc1ccc(-n2cc(COc3cccc4cnc(Nc5cccc(-c6ccc(C(=O)O)cc6)c5)nc34)nn2)c([N+](=O)[O-])c1 [Compound 10a]", 6.05],
  ["Cc1ccc(-n2cc(COc3cccc4cnc(Nc5cc(Cl)cc(-c6cccc(C(=O)O)c6)c5)nc34)nn2)c([N+](=O)[O-])c1 [Compound 13b]", 6.90],
  ["Cc1ccc(-n2cc(COc3cccc4cnc(Nc5cccc(-c6cccc(C(=O)O)c6)c5)nc34)nn2)c([N+](=O)[O-])c1 [Compound 13a]", 6.17]
]}

====

tested target: Hs_PIM1 (Homo sapiens)
protocol text: primary screening, short panel of mammalian kinases
Format: biochemical
condition context: compound 1 μM; ATP 10 µM; means, n = 2; read-out: Residual kinase activity Hs_PIM1
Checkbox rule: remaining activity at 1 µM lower than 80% = satisfied; remaining activity at 1 µM not lower than 80% = not satisfied.

{"columns": ["molecule", "group label"],
 "data": [
  ["COC(=O)c1ccc(-c2cc(Cl)cc(Nc3ncc4cccc(OCc5cn(-c6ccc(C)cc6[N+](=O)[O-])nn5)c4n3)c2)cc1", "not satisfied"],
  ["COC(=O)c1ccc(-c2cccc(Nc3ncc4cccc(OCc5cn(-c6ccc(C)cc6[N+](=O)[O-])nn5)c4n3)c2)cc1", "not satisfied"],
  ["Cc1ccc(-n2cc(COc3cccc4cnc(Nc5cc(Cl)cc(-c6ccc(C(=O)O)cc6)c5)nc34)nn2)c([N+](=O)[O-])c1 [Compound 10b]", "not satisfied"],
  ["Cc1ccc(-n2cc(COc3cccc4cnc(Nc5cc(Cl)cc(-c6cccc(C(=O)O)c6)c5)nc34)nn2)c([N+](=O)[O-])c1 [Compound 13b]", "not satisfied"],
  ["Cc1ccc(-n2cc(COc3cccc4cnc(Nc5cccc(-c6cccc(C(=O)O)c6)c5)nc34)nn2)c([N+](=O)[O-])c1 [Compound 13a]", "satisfied"],
  ["COC(=O)c1cccc(-c2cc(Cl)cc(Nc3ncc4cccc(OCc5cn(-c6ccc(C)cc6[N+](=O)[O-])nn5)c4n3)c2)c1 [Compound 12b]", "not satisfied"]
]}
